B1: ATL3 (parent)
chain: FSFRYQQELEEEIKELYENFCKHN

# Variants of: B1
# test.summary: protein stability index of a GFP-peptide fusion (GPS, HEK-293T) (PSI 1-6); higher = more stable;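 note: lentivirally expressed fusions sorted by FACS into six bins by GFP to DsRed ratio, PSI derived from sequencing read proportions per bin multiplied by bin number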
# condition.context: c terminus: a fixed tail appended
Class true (1): protein stability index at least 2. Class false (0): protein stability index below 2.

• Q6L = true (1)

**Q:** Record E12H ; criterion: protein stability index no lower than 2. Met?
**A:** true (1)

**Q:** Record Y17R ; criterion: protein stability index no lower than 2. Met?
**A:** true (1)

**Q:** Record K22C ; criterion: protein stability index no lower than 2. Met?
**A:** true (1)

**Q:** Record E18Q ; criterion: protein stability index no lower than 2. Met?
**A:** false (0)

**Q:** Record Q6P ; criterion: protein stability index no lower than 2. Met?
**A:** true (1)

**Q:** Record K14F ; criterion: protein stability index no lower than 2. Met?
**A:** false (0)

**Q:** Record E15I ; criterion: protein stability index no lower than 2. Met?
**A:** false (0)

**Q:** Record Y5R ; criterion: protein stability index no lower than 2. Met?
**A:** true (1)

**Q:** Record R4N ; criterion: protein stability index no lower than 2. Met?
**A:** true (1)

**Q:** Record F1Y ; criterion: protein stability index no lower than 2. Met?
**A:** true (1)

**Q:** Record Y17I ; criterion: protein stability index no lower than 2. Met?
**A:** true (1)

**Q:** Record H23Q ; criterion: protein stability index no lower than 2. Met?
**A:** true (1)

**Q:** Record E18A ; criterion: protein stability index no lower than 2. Met?
**A:** true (1)

**Q:** Record S2E ; criterion: protein stability index no lower than 2. Met?
**A:** true (1)

**Q:** Record E8T ; criterion: protein stability index no lower than 2. Met?
**A:** false (0)
